# Assay Name: Cytotoxicity against human MT4 cells assessed as reduction in cell viability incubated for 5 days by MTT assay
# Format: toxicity, cell-based
# Test Settings: time 5 day
hey, just use YES if measured CC50 at 120 h is less than 200 µM, otherwise NO

>>> assigned_label("Cc1cc(C#N)cc(C)c1Oc1ccc(C#N)c(Nc2ccc(C#N)c(C#N)c2)n1")
"NO"
>>> assigned_label("Cc1cc(C#N)cc(C)c1Oc1nc(Nc2ccc(C#N)cc2)c(C#N)cc1Cl")
"NO"
>>> assigned_label("Cc1cc(C#N)cc(C)c1Oc1ccc(C#N)c(NC2CCN(Cc3ccc(S(C)(=O)=O)cc3)CC2)n1")
"YES"
>>> assigned_label("Cc1cc(C#N)cc(C)c1Oc1nc(Nc2ccc(CN3CCN(S(C)(=O)=O)CC3)cc2)c(C#N)cc1Cl")
"NO"
>>> assigned_label("Cc1cc(C#N)cc(C)c1Oc1ccc(C#N)c(Nc2ccc(CN3CCN(S(=O)(=O)N(C)C)CC3)cc2)n1")
"YES"
>>> assigned_label("Cc1cc(C#N)cc(C)c1Oc1nc(Nc2ccc(C#N)c(C#N)c2)c(C#N)cc1F")
"NO"
>>> assigned_label("Cc1cc(C#N)cc(C)c1Oc1ccc(C#N)c(NC2CCN(Cc3ccc(C(N)=O)cc3)CC2)n1")
"YES"
>>> assigned_label("Cc1cc(C#N)cc(C)c1Oc1nc(Nc2ccc(CN3CCN(S(=O)(=O)N(C)C)CC3)cc2)c(C#N)cc1F")
"YES"
>>> assigned_label("Cc1cc(C#N)cc(C)c1Oc1nc(Nc2ccc(C#N)c(F)c2)c(C#N)cc1F")
"NO"
>>> assigned_label("Cc1cc(C#N)cc(C)c1Oc1ccc(C#N)c(Nc2ccc(CN3CCN(S(C)(=O)=O)CC3)cc2)n1")
"YES"
>>> assigned_label("Cc1cc(C#N)cc(C)c1Oc1nc(NC2CCN(Cc3ccc(C(N)=O)cc3)CC2)c(C#N)cc1F")
"YES"
>>> assigned_label("Cc1cc(C#N)cc(C)c1Oc1ccc(C#N)c(NC2CCN(Cc3ccc(S(N)(=O)=O)cc3)CC2)n1")
"YES"
>>> assigned_label("Cc1cc(C#N)cc(C)c1Oc1nc(NC2CCN(Cc3ccc(C(N)=O)cc3)CC2)c(C#N)cc1Cl")
"YES"
>>> assigned_label("Cc1cc(C#N)cc(C)c1Oc1ccc(C#N)c(Nc2ccc(C#N)c(F)c2)n1")
"YES"
>>> assigned_label("Cc1cc(C#N)cc(C)c1Oc1nc(NC2CCN(Cc3ccc(S(N)(=O)=O)cc3)CC2)c(C#N)cc1F")
"YES"
>>> assigned_label("Cc1cc(C#N)cc(C)c1Oc1nc(Nc2ccc(CN3CCN(S(=O)(=O)N(C)C)CC3)cc2)c(C#N)cc1Cl")
"YES"
>>> assigned_label("Cc1cc(C#N)cc(C)c1Oc1nc(NC2CCN(Cc3ccc(S(C)(=O)=O)cc3)CC2)c(C#N)cc1Cl")
"NO"
>>> assigned_label("Cc1cc(C#N)cc(C)c1Oc1nc(Nc2ccc(CN3CCN(S(C)(=O)=O)CC3)cc2)c(C#N)cc1F")
"NO"
>>> assigned_label("Cc1cc(C#N)cc(C)c1Oc1nc(Nc2ccc(C#N)c(F)c2)c(C#N)cc1Cl")
"NO"
>>> assigned_label("Cc1cc(C#N)cc(C)c1Oc1nc(NC2CCN(Cc3ccc(S(N)(=O)=O)cc3)CC2)c(C#N)cc1Cl")
"YES"
>>> assigned_label("Cc1cc(C#N)cc(C)c1Oc1nc(NC2CCN(Cc3ccc(S(C)(=O)=O)cc3)CC2)c(C#N)cc1F")
"YES"

---

# System: Human immunodeficiency virus 1
# Assay Name: Antiviral activity against HIV-1 […] mutant infected in human MT4 cells assessed as protection against virus-induced cytopathic effect incubated for 5 days by MTT assay
# Assay type: functional, organism-based
# Test Settings: Human immunodeficiency virus 1, MT4, 120 h
Test Readout: EC50

>>> val("O=C1Nc2ccc(Cl)cc2[C@@](C#CC2CC2)(C(F)(F)F)O1")
"31.8 nM"
>>> val("Cc1cc(C#N)cc(C)c1Oc1nc(Nc2ccc(C#N)cc2)nc(N)c1Br")
"4.6 nM"
>>> val("Cc1ccnc2c1NC(=O)c1cccnc1N2C1CC1")
"1990 nM"
>>> val("Cc1cc(C#N)cc(C)c1Oc1nc(Nc2ccc(C#N)c(C#N)c2)c(C#N)cc1Cl")
"313 nM"
>>> val("Cc1cn([C@@H]2C[C@@H](N=[N+]=[N-])[C@H](CO)O2)c(=O)[nH]c1=O")
"10.5 nM"
>>> val("Cc1cc(C#N)cc(C)c1Oc1ccc(C#N)c(Nc2ccc(C#N)cc2)n1")
"123 nM"
>>> val("Cc1cc(C#N)cc(C)c1Oc1nc(NC2CCN(Cc3ccc(C(N)=O)cc3)CC2)c(C#N)cc1Cl")
"66 nM"
>>> val("Cc1cc(C#N)cc(C)c1Oc1ccc(C#N)c(NC2CCN(Cc3ccc(C(N)=O)cc3)CC2)n1")
"318 nM"
>>> val("Cc1cc(C#N)cc(C)c1Oc1nc(NC2CCN(Cc3ccc(S(C)(=O)=O)cc3)CC2)c(C#N)cc1F")
"22.5 nM"
>>> val("Cc1cc(C#N)cc(C)c1Oc1nc(NC2CCN(Cc3ccc(C(N)=O)cc3)CC2)c(C#N)cc1F")
"100 nM"
>>> val("Cc1cc(C#N)cc(C)c1Oc1nc(NC2CCN(Cc3ccc(S(N)(=O)=O)cc3)CC2)c(C#N)cc1F")
"43 nM"
>>> val("Cc1cc(C#N)cc(C)c1Oc1ccc(C#N)c(NC2CCN(Cc3ccc(S(N)(=O)=O)cc3)CC2)n1")
"73.6 nM"
>>> val("Cc1cc(C#N)cc(C)c1Oc1nc(Nc2ccc(CN3CCN(S(C)(=O)=O)CC3)cc2)c(C#N)cc1Cl")
"238 nM"
>>> val("Cc1cc(C#N)cc(C)c1Oc1ccc(C#N)c(NC2CCN(Cc3ccc(S(C)(=O)=O)cc3)CC2)n1")
"136 nM"
>>> val("Cc1cc(C#N)cc(C)c1Oc1nc(Nc2ccc(C#N)cc2)c(C#N)cc1F")
"1140 nM"
>>> val("Cc1cc(C#N)cc(C)c1Oc1nc(Nc2ccc(C#N)c(F)c2)c(C#N)cc1F")
"316 nM"

---

# Assay Name: in vitro
# Test Settings: human, MT4 cells
# Description: Selectivity index, ratio of CC50 for cytotoxicity against human MT4 cells to EC50 for antiviral activity against wild type HIV-1 IIIB infected in human MT4 cells
Please enter Fulfilled where selectivity ratio is greater than or equal to 3000, and Not fulfilled where it is lower.

>>> assigned_label("Cc1cc(C#N)cc(C)c1Oc1ccc(C#N)c(NC2CCN(Cc3ccc(S(C)(=O)=O)cc3)CC2)n1")
"Fulfilled"
>>> assigned_label("Cc1cc(C#N)cc(C)c1Oc1ccc(C#N)c(Nc2ccc(CN3CCN(S(=O)(=O)N(C)C)CC3)cc2)n1")
"Not fulfilled"
>>> assigned_label("Cc1cc(C#N)cc(C)c1Oc1nc(Nc2ccc(C#N)c(F)c2)c(C#N)cc1F")
"Fulfilled"
>>> assigned_label("Cc1cc(C#N)cc(C)c1Oc1nc(Nc2ccc(C#N)c(C#N)c2)c(C#N)cc1F")
"Fulfilled"
>>> assigned_label("Cc1cc(C#N)cc(C)c1Oc1nc(Nc2ccc(C#N)c(C#N)c2)c(C#N)cc1Cl")
"Fulfilled"
>>> assigned_label("Cc1cc(C#N)cc(C)c1Oc1nc(NC2CCN(Cc3ccc(S(C)(=O)=O)cc3)CC2)c(C#N)cc1Cl")
"Fulfilled"
>>> assigned_label("Cc1cc(C#N)cc(C)c1Oc1ccc(C#N)c(NC2CCN(Cc3ccc(C(N)=O)cc3)CC2)n1")
"Fulfilled"
>>> assigned_label("Cc1cc(C#N)cc(C)c1Oc1nc(Nc2ccc(CN3CCN(S(C)(=O)=O)CC3)cc2)c(C#N)cc1Cl")
"Fulfilled"
>>> assigned_label("Cc1cc(C#N)cc(C)c1Oc1nc(NC2CCN(Cc3ccc(S(N)(=O)=O)cc3)CC2)c(C#N)cc1Cl")
"Not fulfilled"
>>> assigned_label("Cc1cc(C#N)cc(C)c1Oc1nc(NC2CCN(Cc3ccc(C(N)=O)cc3)CC2)c(C#N)cc1F")
"Fulfilled"
>>> assigned_label("Cc1cc(C#N)cc(C)c1Oc1nc(Nc2ccc(C#N)c(F)c2)c(C#N)cc1Cl")
"Fulfilled"
>>> assigned_label("Cc1cc(C#N)cc(C)c1Oc1nc(Nc2ccc(CN3CCN(S(=O)(=O)N(C)C)CC3)cc2)c(C#N)cc1F")
"Not fulfilled"
>>> assigned_label("Cc1cc(C#N)cc(C)c1Oc1ccc(C#N)c(Nc2ccc(CN3CCN(S(C)(=O)=O)CC3)cc2)n1")
"Not fulfilled"
>>> assigned_label("Cc1cc(C#N)cc(C)c1Oc1nc(NC2CCN(Cc3ccc(S(C)(=O)=O)cc3)CC2)c(C#N)cc1F")
"Fulfilled"

---

# Assay Name: in vitro
# Test Settings: human, MT4 cells
hey, just use satisfied if measured selectivity ratio is less than 6000, otherwise not satisfied

>>> assigned_label("Cc1cc(C#N)cc(C)c1Oc1nc(NC2CCN(Cc3ccc(S(N)(=O)=O)cc3)CC2)c(C#N)cc1F")
"satisfied"
>>> assigned_label("Cc1cc(C#N)cc(C)c1Oc1ccc(C#N)c(NC2CCN(Cc3ccc(S(N)(=O)=O)cc3)CC2)n1")
"satisfied"
>>> assigned_label("Cc1cc(C#N)cc(C)c1Oc1ccc(C#N)c(Nc2ccc(C#N)cc2)n1")
"not satisfied"
>>> assigned_label("Cc1cc(C#N)cc(C)c1Oc1nc(NC2CCN(Cc3ccc(C(N)=O)cc3)CC2)c(C#N)cc1Cl")
"not satisfied"
>>> assigned_label("Cc1cc(C#N)cc(C)c1Oc1ccc(C#N)c(Nc2ccc(C#N)c(F)c2)n1")
"satisfied"
>>> assigned_label("Cc1cc(C#N)cc(C)c1Oc1nc(Nc2ccc(CN3CCN(S(=O)(=O)N(C)C)CC3)cc2)c(C#N)cc1Cl")
"satisfied"
>>> assigned_label("Cc1cc(C#N)cc(C)c1Oc1nc(Nc2ccc(CN3CCN(S(C)(=O)=O)CC3)cc2)c(C#N)cc1F")
"satisfied"
>>> assigned_label("Cc1cc(C#N)cc(C)c1Oc1nc(Nc2ccc(C#N)cc2)c(C#N)cc1Cl")
"not satisfied"
>>> assigned_label("Cc1cc(C#N)cc(C)c1Oc1nc(Nc2ccc(C#N)cc2)c(C#N)cc1F")
"not satisfied"
